I'd appreciate it if you could supply inhibition at 50 µg/mL values for the items below.
- System: HL-60 human promyelocytic leukemia
- test details: In vitro inhibition rate to tumor cells (MTT), HL-60
- Assay type: cell-based
- conditions: Homo sapiens, HL-60, 50 μg/ml; Table 1; read-out: inhibition rate, Results (%) HL-60
Structures can show the parent of a compound that is named as a salt.

Entry under review: CC(C)C1CC23OC1(O)CC(=CBr)C2CCC3C (stereo not shown) [Compound 17, Curcumol monobromide] . Reported inhibition at 50 µg/mL? 92.3%

Now the same for C=C1CC2(OS(=O)(=O)O)OC3(CC2C(C)C)C(C)CCC13 (stereo not shown) [Compound 20, Curcumol sulfonate] 91.3%

How about CC(C)C1CC23OC1(O)CC(C)C2CCC3C (stereo not shown) [Compound 33, hydrogenated curcumol derivative] ? 1.32%

Same for C=C1CC2(O)OC3(CC2C(C)C)C(C)CCC13 (stereo not shown) [Curcumol E, Curcumol, reference compound] 1.32%

Also check C=C1CC2(OC)OC3(CC2C(C)C)C(C)CCC13 (stereo not shown) -2.63%

Next record, please: CC(C)C1CC23OC1(O)CC1(CO1)C2CCC3C (stereo not shown) 10.3%

Now consider CC(C)C1CC23OC1(O)CC(=CN1CCNCC1)C2CCC3C (stereo not shown) [Compound 8, Curcumol piperazine hydrochloride] . 92%

###

Counter-ions that a name gives are not always drawn.
Kindly state melting point for each of the entries shown.

I'd like to know its melting point. The compound in question is CC(C)C1CC23OC1(O)CC(=CN1CCNCC1)C2CCC3C (stereo not shown) (as salt: hydrochloride) [Compound 8, Curcumol piperazine hydrochloride] 150 to 152 °C

Next record, please: CC(C)C1CC23OC1(O)C/C(=C\Nc1ccc(O)cc1)C2CCC3C (stereo not shown) (as salt: hydrochloride) [Compound 6, Curcumol p-hydroxy aniline hydrochloride] 147.5 to 149.5 °C

Can you check CC(C)C1CC23OC1(O)C/C(=C\NC(C)(C)C)C2CCC3C (stereo not shown) [Compound 15, Curcumol t-butyl amine] next? 79 to 80 °C

# repeat for CC(C)C1CC23OC1(O)C/C(=C\NC(C)(C)C)C2CCC3C (stereo not shown) (as salt: hydrochloride) [Compound 16, Curcumol t-butyl amine hydrochloride] 115 to 116 °C

###

- target: HIV-1 reverse transcriptase (Human immunodeficiency virus type 1 group M subtype B, UniProt P04585)
- Construct: purchased
- test details: Screening for the in vitro activity against the HIV-1 reverse transcriptase
- Type: biochemical
- conditions: initial concentration 200 μg/ml
pIC50: −log10 of the molar value. Counter-ions that a name gives are not always drawn.
recorded metric: pIC50

Given CC(C)C1CC23OC1(O)C/C(=C\Nc1ccc(O)cc1)C2CCC3C (stereo not shown) [Compound 6, Curcumol p-hydroxy aniline hydrochloride] , state its recorded pIC50. < 3.23

###

Please respond with reported TC50 for every item in the list.
- Test system: MDCK (dog kidney) cells
- test details: Toxicity TC50 of the samples in MDCK cells (influenza screening)
- conditions: concentration of 50% toxicity
Counter-ions that a name gives are not always drawn.
A number alone suffices; assume µg/mL.

I'm curious: which TC50 was measured for CCCCNC=C1CC2(O)OC3(CC2C(C)C)C(C)CCC13.Cl (stereo not shown) [Compound 14, Curcumol n-butyl amine hydrochloride] tested on MDCK (dog kidney) cells? 143.17

Continue with CC(C)C1CC23OC1(O)C/C(=C\Nc1ccc(O)cc1)C2CCC3C (stereo not shown) [Compound 6, Curcumol p-hydroxy aniline hydrochloride] 192.45

What about CC(C)C1CC23OC1(O)CC(=CN1CCNCC1)C2CCC3C (stereo not shown) [Compound 8, Curcumol piperazine hydrochloride] ? 192.45
